assay: protease stability score; higher = more stable; yeast display proteolysis, trypsin and chymotrypsin;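 note: relative to predicted unfolded state with 0 unfolded-like and 1 meaning tenfold more protease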
Outcome: Satisfied for protease stability score of at least 2; Not satisfied for anything lower.

Query block: Is it the case that "DEDEENARRFIHELSRILETGDEERLDEMADPDVRIIIGEKHLHGREEFRKWMRHLLKRVKNMQIEVQLTSSEIVGEWVNLDTTLIIRVGDKHYEHRTVVIVLKIDGRWFLHQIHFK" has protease stability score reaching or exceeding 2?
Result block: Not satisfied

Query block: Follow-up entry: "SEHFEIALEILKLFLRSRHTGDWKTMEEMADPDVRLEVGEYTNHGWEEILRVLEELRFEIHFIHDHDVKFQGDKLHLDGHVDGVRRVDGQEVRIVSHIEIISVVVNGRAKSYSEHWV"
Result block: Not satisfied

Query block: Follow-up entry: "SEEDKLSEELARRWIHLFETGDEETILHLADPHMKYILIINGRNEIHHGMKMMSEELKRIKGARFEIKRIEVQGDKVHLDVRIRIDGVEIDSEIDLKIVDGRLRELKVTIK"
Result block: Satisfied

Query block: Follow-up entry: "DEDHDLQEEILKRFEHLFRTGDWKELHHLLDPHARTRWDGRTRHGRDQVLDVMREMGADHLTIHHYNIQGEKIRIDFDLEIGDKRHKLDIHVSKINGKWIVKHIEIDTR"
Result block: Not satisfied

Query block: Follow-up entry: "SEEEKELRFVYDLLWHLLKTGDEEITRELADPRVRIDIDGKEWHGRDELARLFDRLHRELGYTVHRTRHHRHDFINGQWHEDGETKGVIGDKEFETHVKIIIIVINGRLKEVIFHYH"
Result block: Not satisfied

---

assay: protease stability score; higher = more stable; yeast display proteolysis, trypsin and chymotrypsin;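 note: relative to predicted unfolded state with 0 unfolded-like and 1 meaning tenfold more protease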
MEASURED_PARAMETER: protease stability score

Query block: Return reported protease stability score; argument: "DEDEHARKFVLDRLQHAWETGDEETMEKLMDPNAKLHVNGQDFHGRDTWHKLLHDELRDMGIKHFEFELKSFESQGNKLIIDGLEISEFNGREFRHRVTLIVDKFNGRWVVQSVEIR"
Result block: 1.29

Query block: Follow-up entry: "DEDREWIERFNRILIESLTTGDEHTLKELIDPNARLVINGRDIHGREEFVRLLSEMGVKHFHVHDVKVVGNKAVTRGILYFNGREYDVDVFTRKIDGRWLYESLEVK"
Result block: 2.02

Query block: Follow-up entry: "DEIKDHVEHASRLLLETYETGDEHTLERLVDPHVKLEVNGQEHVGRETTRWMLEFFKNLKIRIEDVRWQGNKIEIHSILHFNGKDLEMIYFAEKVDGRWVIRSVRTT"
Result block: 1.38

Query block: Follow-up entry: "SHLEEEAKEAHDVWLHELLTGDEHQINRLLDPHTRVHIGDKDLHGRHELVRKMVETVRRVDHYHLKIKHLRVQGDKIVSTGNYTLHINGKDIHIDTRLILTKIDGVWILEEIRVE"
Result block: 1.16

Query block: Follow-up entry: "HEEHESLRRATRHELQTLETGDEDLFEKLVDPNYKVVINGVELHGMHELRRWIIELRIDDFELHDVNVVNGRASIDGTMHTHVNGQRLERKVRIHIEKINGRWVRREYIYH"
Result block: 0.726

Query block: Follow-up entry: "DEEEKISKEATDNFIREFETGNEEDLMKNMDPNARLIQGDKHNHGRDEASRFLVELLRDLGFKHIRLTHVRIIDGRVWVHSDLHFNGVEFKQDVIFTKINGKWTLKSLTIK"
Result block: 1.13

Query block: Follow-up entry: "EEIIDLMERLAYLWHHWLTTGNEEMLSKFLDPHARIVIGDKIYHGREKIHEELRRHLERFDHIEFRLRHTEVQGNKIHNHGELKLRIGNYTVHYETRFELQIYDGKIHEFQVKID"
Result block: 1.73

Query block: Follow-up entry: "SEEEELAERMIRIWQKDIRTGNEESLSKFIDPNVRNEYGDKTHHGRHVFADVIRRILDELGVTNVHSRLTRMEIQGDKVRVDVQINIDGQEYRIEVHFEKVNGRWNVTSWNIR"
Result block: 0.698

Query block: Follow-up entry: "DEETKRAEELMELWLHLLRTGDEELLSELMDPHVRLDINGVELHGREALLQWHHEHRRRIDHREIRVESRRIQGEKVEQHEDIIIHVNGVEFRHREFYEVVIIDGRFKELHIEHE"
Result block: 0.546

Query block: Follow-up entry: "DEERTLVEELIQIFVEALETGDFETLSKMFDPHALFLQGDKRFVGRKDIEKWIHDLVRRLGVNHIEIDKITVQGEKAHVDTRVHIGDKTSTIHILIVKVNGRWFVEEIRYH"
Result block: 1.17

Query block: Follow-up entry: "DDIEKDMERFTHVWLEAWRTGDEDLAKELFDPNTRVEQGDKKYHGRTEFVNLLSHIRIRDMRIHDIHYIVIDGKAIIDFDGELTIDVNGRFHRHRVIIHVEVIKINGQWEISQMRIEVR"
Result block: 1.11

Values were extracted from the NTF2 design screens of Basanta et al. (2020).
